Measured abundance fitness, listed per entry for reference.
B1: MEF2-activating motif and SAP domain-containing transcriptional regulator, residues 170 to 204; numbered along this chain, Q6ZN01 (parent)
chain: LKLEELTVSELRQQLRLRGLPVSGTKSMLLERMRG

# Variants of: B1
# protocol.details: abundance fitness (aPCA) (normalised: wild type 0, dead -1); higher = more abundant; growth selection in yeast, the domain comes from the species named
# run.conditions: Homo sapiens

Record Q13W , field abundance fitness: -0.28

Record R18K , field abundance fitness: -0.119

Record T25G , field abundance fitness: -0.27

Record V8H , field abundance fitness: -0.486

Record T7N , field abundance fitness: -0.249

Further cases:
Record G24S , field abundance fitness: -0.817

Record V8W , field abundance fitness: -0.03
